Biological target: T1, NHERF1 PDZ1 (11–120) (human, UniProt O14745 11-120)
T1 construct: Na+/H+ Exchanger Regulatory Factor-1 (NHERF1, EBP50), human, PDZ1 construct, residues 11-120; also called WT PDZ1 (11–120); source: E. coli BL21 (DE3), purified (Ni-NTA-agarose)
T1 sequence (looked up): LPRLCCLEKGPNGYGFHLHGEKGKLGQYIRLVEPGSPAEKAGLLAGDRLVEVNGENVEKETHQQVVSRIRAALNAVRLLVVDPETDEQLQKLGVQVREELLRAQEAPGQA
Assay: fluorescence polarisation; solution phase direct binding, PDZ construct varied against 0.5 uM or 1 uM rhodamine-labeled NPT2A peptide; FP buffer (25 mM NaH2PO4, 10 mM NaCl, pH 7.4, 1 mM DTT, 0.1 mg/ml bovine IgG, 0.5 mM Thesit); 25°C; anisotropy fitted to a 1:1 complex
Conditions: both partners purified
Where no end group is shown, it is not given here.
measurementKind: Kd (µM)
Report only the number, with the unit µM understood.

Reported Kd for {5(6)‑carboxytetramethylrhodamine}-ELPPATPSPRLALPAHHNATRL (type II sodium-dependent phosphate co-transporter (NPT2A, SLC34A1), 22-residue carboxy-terminal fragment; also called labeled NPT2A peptide; source: synthetic peptide (solid phase, Fmoc; HPLC purified)) [rhodamine-labeled 22-residue carboxy-terminal NPT2A peptide] : what is it?
5.5

# credit: paper PMC4466390
